# Assay Summary: qHTS Assay for Lipid Storage Modulators in Drosophila S3 Cells
# Condition Set: BODIPY lipid droplet fluorescence, 18-24 h, cells fed with added oleic acid; series mostly up to 46.1 µM
Hit rate of the full screen: of about 320,000 compounds, about 2,100 (0.66%) were called active. Inconclusive results (about 53%) are left out. Calls come from the whole dose curve; as a rule, active = well fitted inhibition curve with a large enough effect in the signal ratio, with a control signal flat (not every such curve was filed as active); inconclusive = small, poorly fitted or top-dose-only effect, or effect the other way, or a change in a side signal; inactive = flat fitted curve, though single readings scatter; the % refers to the signal ratio. Only a selection was taken, and actives are over-represented in it overall.
Outcomes: active, inactive

{"Compound": "CC(=O)N1CCN(c2nc3ccc([N+](=O)[O-])cc3s2)CC1", "Assigned Category": "inactive"}
{"Compound": "O=C(c1ccc([N+](=O)[O-])o1)N1CCN(Cc2ccccc2)CC1", "Assigned Category": "active"}
{"Compound": "COc1cccc(C2=NOC(C(=O)N3CCN(Cc4ccccc4)CC3)C2)c1OC (centres undefined)", "Assigned Category": "inactive"}
{"Compound": "Cc1cc(Nc2ccc(Br)cc2)nc(-c2ccccc2O)n1", "Assigned Category": "active"}
{"Compound": "CS(=O)(=O)N1CCN(c2ccccc2NC(=O)c2ccc([N+](=O)[O-])o2)CC1", "Assigned Category": "inactive"}
{"Compound": "CCC(=O)Nc1ccc(S(=O)(=O)Nc2ccc(Cl)nn2)cc1", "Assigned Category": "inactive"}
{"Compound": "CCOCCOc1cccc(C(=O)NC(c2ccccc2)C(C)C)c1 (centres undefined)", "Assigned Category": "inactive"}
{"Compound": "O=C(COC(=O)c1ccccn1)NCc1ccccc1Cl", "Assigned Category": "inactive"}
{"Compound": "Cc1ccc(C(=O)N2CCN(Cc3ccccc3)CC2)o1", "Assigned Category": "inactive"}
{"Compound": "CC(=O)c1ccc(NC(=O)/C(=C\\c2cccs2)NC(=O)c2ccco2)cc1", "Assigned Category": "inactive"}
{"Compound": "Cc1nc(S(=O)(=O)N2CCN(C3c4ccccc4-c4ccccc43)CC2)cn1C", "Assigned Category": "inactive"}
{"Compound": "COc1ccc(N2CCN(C(=O)c3ccc4nc(N5CCCCC5)sc4c3)CC2)cc1", "Assigned Category": "inactive"}
{"Compound": "CCOc1ccc(CO/N=C/c2c(C)[nH]c(=O)[nH]c2=O)cc1", "Assigned Category": "inactive"}
{"Compound": "O=C(Nc1ccccc1N1CCOCC1)c1ccc([N+](=O)[O-])o1", "Assigned Category": "inactive"}
